Biological target: KIT (D816H) (Homo sapiens, UniProt P10721, D816H)
Construct: T7 phage fusion or DNA label for qPCR detection
Sequence (P10721 26-976 D816H): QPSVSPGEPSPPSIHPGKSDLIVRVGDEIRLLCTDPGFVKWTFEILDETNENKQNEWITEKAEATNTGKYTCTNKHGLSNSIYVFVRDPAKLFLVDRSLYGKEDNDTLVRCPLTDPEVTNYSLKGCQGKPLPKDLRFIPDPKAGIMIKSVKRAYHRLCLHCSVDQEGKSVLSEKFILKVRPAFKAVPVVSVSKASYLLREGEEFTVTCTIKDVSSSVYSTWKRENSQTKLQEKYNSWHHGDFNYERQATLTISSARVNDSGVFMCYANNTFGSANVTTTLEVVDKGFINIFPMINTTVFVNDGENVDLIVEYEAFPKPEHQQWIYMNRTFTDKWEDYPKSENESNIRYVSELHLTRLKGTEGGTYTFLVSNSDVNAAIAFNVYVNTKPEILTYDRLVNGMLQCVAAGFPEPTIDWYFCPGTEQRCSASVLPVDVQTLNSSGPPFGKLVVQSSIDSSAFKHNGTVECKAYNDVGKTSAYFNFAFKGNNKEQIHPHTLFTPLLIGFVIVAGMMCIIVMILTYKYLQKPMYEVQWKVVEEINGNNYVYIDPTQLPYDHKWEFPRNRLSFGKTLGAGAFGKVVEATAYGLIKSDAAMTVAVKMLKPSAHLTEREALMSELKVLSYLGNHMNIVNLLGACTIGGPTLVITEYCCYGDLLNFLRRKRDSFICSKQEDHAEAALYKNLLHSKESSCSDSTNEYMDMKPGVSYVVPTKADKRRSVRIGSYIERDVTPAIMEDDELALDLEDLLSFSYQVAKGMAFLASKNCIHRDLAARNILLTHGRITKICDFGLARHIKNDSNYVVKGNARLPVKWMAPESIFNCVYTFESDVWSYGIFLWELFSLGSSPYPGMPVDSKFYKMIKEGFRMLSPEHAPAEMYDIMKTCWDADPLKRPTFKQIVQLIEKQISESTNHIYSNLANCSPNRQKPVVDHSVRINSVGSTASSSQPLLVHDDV
Test: Kinase binding assay (Kd, qPCR detection)
Experimental: A kinase-tagged T7 phage strain was prepared from an E. coli host derived from a BL21 strain. E. coli was grown in log-phase, infected with T7 phage, and then incubated with shaking at 32° C. until lysis. The lysates were centrifuged and filtered to remove cell debris. […] The kinase concentration in the eluates was measured by qPCR. […] The Kd value of c-kit protein was calculated with a standard dose-response curve (Equation 1) using the Hill equation. […]
assayEndpoint: Kd (nM)
// return numeric value only (unit: nM, not printed)

Ask: Dear colleague, I am looking for the recorded Kd of the following compound: NC(=O)Nc1cc(C#Cc2cccc(F)c2)sc1C(=O)N[C@H]1CCCNC1
Reply: 4.8

====

system: HMC-1.2 cell line (imatinib-resistant cell line, having c-kit G560V/D816V mutation); assay: Growth inhibition of mastocytosis cell line HMC-1.2; format: cell-based; conditions: HMC-1.2, 72 hours
Please note: GI50 exactly at 200 nM is false. Only values below 200 nM get true.

CCN(CC)CCNC(=O)c1c(C)[nH]c(/C=C2\C(=O)Nc3ccc(F)cc32)c1C [Sunitinib, reference compound]
false

Ask: hey, is GI50 for Cc1ccc(NC(=O)c2ccc(CN3CCN(C)CC3)cc2)cc1Nc1nccc(-c2cccnc2)n1 [Imatinib, reference compound] lower than 200 nM or not?
Reply: false

Ask: hey, is GI50 for Cc1nc(Nc2ncc(C(=O)Nc3c(C)cccc3Cl)s2)cc(N2CCN(CCO)CC2)n1 [Dasatinib] lower than 200 nM or not?
Reply: false

Ask: hey, is GI50 for NC(=O)Nc1cc(C#Cc2cccc(F)c2)sc1C(=O)N[C@H]1CCCNC1 [PHI-101] lower than 200 nM or not?
Reply: true

====

target: KIT (V559D, T670I) (Homo sapiens, UniProt P10721, T670I/V559D); construct: T7 phage fusion or DNA label for qPCR detection; assay: Kinase binding assay (Kd, qPCR detection)
Sequence (P10721 26-976 V559D/T670I): as the sequence (P10721 26-976 D816H) above, with V534D, T645I, H791D counted along it
assayEndpoint: pKd
Scale: pKd equals -log10([C]), with [C] in mol/L.

Ask: Dear colleague, I am looking for the recorded pKd of the following compound: NC(=O)Nc1cc(C#Cc2cccc(F)c2)sc1C(=O)N[C@H]1CCCNC1
Reply: 7.57

====

target: KIT (V559D, V654A) (Homo sapiens, UniProt P10721, V559D/V654A); construct: T7 phage fusion or DNA label for qPCR detection; made in house; host or cells: T7 phage in E. coli BL21-derived host, or HEK-293 cells (both named); test: Kinase binding assay (Kd, qPCR detection)
Sequence (P10721 26-976 V559D/V654A): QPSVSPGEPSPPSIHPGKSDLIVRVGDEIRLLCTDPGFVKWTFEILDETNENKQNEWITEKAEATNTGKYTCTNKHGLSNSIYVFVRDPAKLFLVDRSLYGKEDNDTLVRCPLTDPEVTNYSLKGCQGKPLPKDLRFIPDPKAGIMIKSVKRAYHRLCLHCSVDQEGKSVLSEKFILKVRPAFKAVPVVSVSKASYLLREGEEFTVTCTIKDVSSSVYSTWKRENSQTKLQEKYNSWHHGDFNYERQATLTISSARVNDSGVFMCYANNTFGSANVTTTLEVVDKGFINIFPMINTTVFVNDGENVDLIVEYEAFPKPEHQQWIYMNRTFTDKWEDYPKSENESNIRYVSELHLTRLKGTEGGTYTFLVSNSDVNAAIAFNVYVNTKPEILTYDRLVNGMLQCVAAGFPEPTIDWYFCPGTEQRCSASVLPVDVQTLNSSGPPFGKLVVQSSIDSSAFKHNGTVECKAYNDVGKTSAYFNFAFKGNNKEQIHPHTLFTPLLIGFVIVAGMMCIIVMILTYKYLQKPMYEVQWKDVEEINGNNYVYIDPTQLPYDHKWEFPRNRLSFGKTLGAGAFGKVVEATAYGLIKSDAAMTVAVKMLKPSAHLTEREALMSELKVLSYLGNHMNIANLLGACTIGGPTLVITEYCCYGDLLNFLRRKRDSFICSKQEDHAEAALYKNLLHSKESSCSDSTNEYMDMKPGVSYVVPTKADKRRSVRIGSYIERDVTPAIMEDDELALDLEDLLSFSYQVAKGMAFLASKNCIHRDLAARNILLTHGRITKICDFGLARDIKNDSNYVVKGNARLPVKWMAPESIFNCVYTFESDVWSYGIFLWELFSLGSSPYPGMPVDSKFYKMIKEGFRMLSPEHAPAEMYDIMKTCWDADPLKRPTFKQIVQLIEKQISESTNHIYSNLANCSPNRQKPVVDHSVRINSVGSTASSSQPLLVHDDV
assayEndpoint: Kd
Please provide the amount together with its unit, number first.

Ask: Dear colleague, I am looking for the recorded Kd of the following compound: NC(=O)Nc1cc(C#Cc2cccc(F)c2)sc1C(=O)N[C@H]1CCCNC1
Reply: 26 nM

====

Target: KIT (A829P) (Homo sapiens, UniProt P10721, A829P)
Construct: T7 phage fusion or DNA label for qPCR detection
Sequence (P10721 26-976 A829P): as the sequence (P10721 26-976 V559D/V654A) above, with D534V, A629V, A804P counted along it
Experiment: Kinase binding assay (Kd, qPCR detection)
Procedure: A kinase-tagged T7 phage strain was prepared from an E. coli host derived from a BL21 strain. E. coli was grown in log-phase, infected with T7 phage, and then incubated with shaking at 32° C. until lysis. The lysates were centrifuged and filtered to remove cell debris. […] The kinase concentration in the eluates was measured by qPCR. […] The Kd value of c-kit protein was calculated with a standard dose-response curve (Equation 1) using the Hill equation. […]
assayEndpoint: pKd
Scale: pKd equals -log10([C]), with [C] in mol/L.

Ask: Dear colleague, I am looking for the recorded pKd of the following compound: NC(=O)Nc1cc(C#Cc2cccc(F)c2)sc1C(=O)N[C@H]1CCCNC1
Reply: 8.89
